# inhibition at 100 µM annotations
# measuredOn: type 2 human 5α-reductase (HRED2) (Homo sapiens)
# Sequence (P31213 whole entry): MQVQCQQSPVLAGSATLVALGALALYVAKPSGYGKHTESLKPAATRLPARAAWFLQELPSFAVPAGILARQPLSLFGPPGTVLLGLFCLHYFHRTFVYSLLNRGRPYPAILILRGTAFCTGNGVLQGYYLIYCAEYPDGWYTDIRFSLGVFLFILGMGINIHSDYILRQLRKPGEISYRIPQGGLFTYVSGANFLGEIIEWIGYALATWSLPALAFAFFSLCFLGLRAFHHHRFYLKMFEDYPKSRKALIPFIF
# test: Cell free assay of 5α-reductase, microsomes of rat 1A cells expressing type 2 isoenzyme (HRED2);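 note: labeled testosterone and its product dihydrotestosterone measured in microsomal reaction extracts via thin layer chromatography plus radioanalytic scanning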
# Assay type: biochemical
# Design: expressed in transfected cells; host or cells: rat 1A cells infected with pMV7 retrovirus; microsomes
# measurementSetup: 100 μM; cell free assay; Table 4; read-out: HRED2 % Inhibition @ 100 μM
# output: bare number, implied unit %

Record excerpt, results attached:
| compound | measurementLabel | val |
| --- | --- | --- |
| O=C1c2cccc(O)c2C(=O)c2cccc(O)c21 [Anthrarufin] | inhibition at 100 µM | 13 |
| CC(C)=CCC1=C(O)C(=O)c2ccccc2C1=O [Lapachol] | inhibition at 100 µM | 9 |
| O=C1c2ccc(O)cc2C(=O)c2ccc(O)cc21 [Anthraflavic Acid] | inhibition at 100 µM | 22 |

Task: // returns reported inhibition at 100 µM for input CC1=CC(=O)c2ccccc2C1=O [Menadione]
Output: 81

Task: Note, next up: O=C1c2ccccc2C(=O)c2c(O)ccc(O)c21 [Quinizarin]
Output: 7

From: patent US20030144346A1
